Some compounds, each annotated with its measured concentration at 0.25 h.
method-notes: Tissue distribution study (dorsal root ganglia) in ICR mice
Type: in vivo
condition-parameters: male, mouse, oral administration 20 mg/kg, Time 0.25 h
Write the answer as a number in ng/g, unit excluded.

Completed entries (count: 5):
COc1c([C@@H]2C[C@](C)(C(F)(F)F)S[C@H]2C(=O)Nc2ccc3nnnn3c2)ccc(F)c1F [Compound 202-A]: 710
COc1c([C@@H]2C[C@](C)(C(F)(F)F)S[C@H]2C(=O)Nc2ccnc(C#N)c2)ccc(F)c1F [Compound 242-A]: 597
COc1c(C2CC(C)(C(F)(F)F)SC2C(=O)Nc2ccnc(C(N)=O)c2)ccc(F)c1F (single isomer, unassigned) [Compound 139-A]: 1920
COc1c([C@@H]2C[C@](C)(C(F)(F)F)S[C@H]2C(=O)Nc2ccc3c(c2)COB3O)ccc(F)c1F [Compound 119-A]: 875
COc1c([C@@H]2C[C@](C)(C(F)(F)F)S[C@H]2C(=O)Nc2cccc(S(N)(=O)=O)c2)ccc(F)c1F [Compound 223-A]: 511

Notebook: COc1c([C@@H]2C[C@](C)(C(F)(F)F)S[C@H]2C(=O)Nc2ccnc(N=[N+]=[N-])c2)ccc(F)c1F [a-20-A] , concentration at 0.25 h read as 1040

Notebook: COc1c([C@@H]2C[C@](C)(C(F)(F)F)S[C@H]2C(=O)Nc2ccc(F)c(S(N)(=O)=O)c2)ccc(F)c1F [Compound 233-A] , concentration at 0.25 h read as 400
